assay_explanation: AUC in cynomolgus monkey at 30 mg/kg, po
Format: ADME, organism-based, Macaca fascicularis
Parameters: dose 30 mg/kg, route oral
experimental_context: plasma
readout_name: AUC (µM·h)
Give bare numbers, in µM·h.

Task item: Return reported AUC; argument: COc1ccc([C@]2(O)CC[C@H](N3CC[C@@H](NC(=O)CNC(=O)c4cccc(C(F)(F)F)c4)C3)CC2)cn1.CS(=O)(=O)O
Reply: 9.08

----------
assay_explanation: Half life in dog at 5 mg/kg, iv
Assay type: ADME, organism-based, Canis lupus familiaris
Design: dose 5 mg/kg, route intravenous
experimental_context: in vivo
readout_name: half-life (h)
One number for each entry, in h.

Task item: Return reported half-life; argument: COc1ccc([C@]2(O)CC[C@H](N3CC[C@@H](NC(=O)CNC(=O)c4cccc(C(F)(F)F)c4)C3)CC2)cn1.CS(=O)(=O)O
Reply: 3.5

----------
assay_explanation: Cmax in chimpanzee at 4 mg/kg, po
Format: ADME, organism-based, Pan troglodytes
Design: dose 4 mg/kg, route oral
experimental_context: in vivo
readout_name: Cmax (nM)
Numbers only, in nM.

Task item: Return reported Cmax; argument: COc1ccc([C@]2(O)CC[C@H](N3CC[C@@H](NC(=O)CNC(=O)c4cccc(C(F)(F)F)c4)C3)CC2)cn1.CS(=O)(=O)O
Reply: 1120

----------
assay_explanation: Cmax in rat at 10 mg/kg, po
Type: ADME, organism-based
Design: dose 10 mg/kg, route oral
experimental_context: in vivo
readout_name: Cmax (nM)
One number for each entry, in nM.

Task item: Return reported Cmax; argument: COc1ccc([C@]2(O)CC[C@H](N3CC[C@@H](NC(=O)CNC(=O)c4cccc(C(F)(F)F)c4)C3)CC2)cn1.CS(=O)(=O)O
Reply: 573

----------
assay_explanation: AUC in chimpanzee at 4 mg/kg, po
Format: ADME, organism-based, Pan troglodytes
Set-up: dose 4 mg/kg, route oral
experimental_context: plasma
readout_name: AUC (µM·h)
One number for each entry, in µM·h.

Task item: Return reported AUC; argument: COc1ccc([C@]2(O)CC[C@H](N3CC[C@@H](NC(=O)CNC(=O)c4cccc(C(F)(F)F)c4)C3)CC2)cn1.CS(=O)(=O)O
Reply: 4.94

----------
assay_explanation: Tmax in cynomolgus monkey at 30 mg/kg, po
Type: ADME, organism-based, Macaca fascicularis
Design: dose 30 mg/kg, route oral
experimental_context: in vivo
readout_name: Tmax (h)
Give bare numbers, in h.

Task item: Return reported Tmax; argument: COc1ccc([C@]2(O)CC[C@H](N3CC[C@@H](NC(=O)CNC(=O)c4cccc(C(F)(F)F)c4)C3)CC2)cn1.CS(=O)(=O)O
Reply: 1.5

----------
assay_explanation: Clearance in dog at 5 mg/kg, iv
Type: ADME, organism-based, Canis lupus familiaris
Set-up: dose 5 mg/kg, route intravenous
experimental_context: in vivo
readout_name: clearance
Reply with a number, then the unit it belongs to.

Task item: Return reported clearance; argument: COc1ccc([C@]2(O)CC[C@H](N3CC[C@@H](NC(=O)CNC(=O)c4cccc(C(F)(F)F)c4)C3)CC2)cn1.CS(=O)(=O)O
Reply: 9.5 mL/min/kg

----------
assay_explanation: Tmax in rat at 10 mg/kg, po
Assay type: ADME, organism-based
Design: dose 10 mg/kg, route oral
experimental_context: in vivo
readout_name: Tmax (h)
Numbers only, in h.

Task item: Return reported Tmax; argument: COc1ccc([C@]2(O)CC[C@H](N3CC[C@@H](NC(=O)CNC(=O)c4cccc(C(F)(F)F)c4)C3)CC2)cn1.CS(=O)(=O)O
Reply: 4
